biological target: Protein kinase C, PKC; classical (Rattus norvegicus, UniProt P05696+P68403+P63319); experiment: Inhibition of protein kinase C was evaluated as Inhibitory concentration; format: protein assay
# log10 of IC50 per entry
Note: values are log10 of IC50 expressed in nM.

Cn1cc(C2=C(c3c4n(c5ccccc35)CCC(N)C4)C(=O)NC2=O)c2ccccc21 (configuration not stated) :: 2.04
Cn1cc(C2=C(c3c4n(c5ccccc35)CC[C@@H](CN)C4)C(=O)NC2=O)c2ccccc21 :: 1.00
Cn1cc(C2=C(c3c4n(c5ccccc35)CCNC4)C(=O)NC2=O)c2ccccc21 :: 2.73
Cl.Cn1cc(C2=C(c3c4n(c5ccccc35)CC(CCN)CC4)C(=O)NC2=O)c2ccccc21 (configuration not stated) :: 1.36
Cn1cc(C2=C(c3c4n(c5ccccc35)CC(CN)CCC4)C(=O)NC2=O)c2ccccc21 (configuration not stated) :: 2.60
CN(C)CC1CCn2c(c(C3=C(c4cn(C)c5ccccc45)C(=O)NC3=O)c3ccccc32)C1.Cl (configuration not stated) :: 1.62
Cn1cc(C2=C(c3c4n(c5ccccc35)CCC(C[N+](C)(C)C)C4)C(=O)NC2=O)c2ccccc21 (configuration not stated) :: 1.69
Cn1cc(C2=C(c3c4n(c5ccccc35)CCCC4)C(=O)NC2=O)c2ccccc21 :: 2.19

GET log10 of IC50 where system = Protein kinase C, PKC; classical (Rattus norvegicus, UniProt P05696+P68403+P63319) and item = Cn1cc(C2=C(c3c4n(c5ccccc35)CC(CN)C4)C(=O)NC2=O)c2ccccc21 (configuration not stated)
1.15

System Protein kinase C, PKC; classical (Rattus norvegicus, UniProt P05696+P68403+P63319). Read-out log10 of IC50. Item Cn1cc(C2=C(c3c4n(c5ccccc35)CCC4)C(=O)NC2=O)c2ccccc21 . Report value.
2.32

Would you please give the reported log10 of IC50 of Cn1cc(C2=C(c3c4n(c5ccccc35)CC(N)CC4)C(=O)NC2=O)c2ccccc21 (configuration not stated) with Protein kinase C, PKC; classical (Rattus norvegicus, UniProt P05696+P68403+P63319)?
2.13

GET log10 of IC50 | system: Protein kinase C, PKC; classical (Rattus norvegicus, UniProt P05696+P68403+P63319) | item: Cn1cc(C2=C(c3c4n(c5ccccc35)CCCCC4)C(=O)NC2=O)c2ccccc21
2.65

From: ChEMBL document CHEMBL1126671
